B1: human LIGHT extracellular domain (L83-V240) [human] / WT hHVEM (L39-V202) fused with a PD-L1 transmembrane domain and EGFP, on cells [human] (parent complex)
chain 1: LIQERRSHEVNPAAHLTGANSSLTGSGGPLLWETQLGLAFLRGLSYHDGALVVTKAGYYYIYSKVQLGGVGCPLGLASTITHGLYKRTPRYPEELELLVSQQSPCGRATSSSRVWWDSSFLGGVVHLEAGEKVVVRVLDERLVRLRDGTRSYFGAFMV
chain 2: LPSCKEDEYPVGSECCPKCSPGYRVKEACGELTGTVCEPCPPGTYIAHLNGLSKCLQCQMCDPAMGLRASRNCSRTENAVCGCSPGHFCIVQDGDHCAACRAYATSSPGQRVQKGGTESQDTLCQNCPPGTFSPNGTLEECQHQTKCSWLVTKAGAGTSSSHWV

Variants of: B1
assay-comment: flow cytometry on cells stained with soluble protein
result-type: ratio to parent

{"residue-change": "chain 2 L49A", "meas-value": 1.2}
{"residue-change": "chain 2 L52A", "meas-value": 0.9}
{"residue-change": "chain 2 G51A", "meas-value": 1.2}
